// reported PBM 8-mer E-score for each item listed
# Test system: 2Sb-muMax20 (muMax20 with two 1,3-bis(methyl)benzene Cys staples, A13C/A17C and Q88C/A92C, C-terminal Lys)
# ASSAY NOTES: PBM 8-mer E-score (E-score (rank enrichment, -0.5 to 0.5)); higher = stronger preferential binding
The full ranking holds about 33,000 sequences; the median of “E-score (rank enrichment, -0.5 to 0.5)” is about -0.0028, and the highest 2% start at about 0.23. Only a selection was taken, and the highest values are over-represented in it overall.
Give only the figure.

ATAGGAAT    -0.00103

Per the record, GCTTATTA has PBM 8-mer E-score of 0.131

Per the record, CCACTCAA has PBM 8-mer E-score of 0.199

Per the record, CCTCATTA has PBM 8-mer E-score of 0.251

Per the record, CAACTCAG has PBM 8-mer E-score of -0.162

----------
# Tested on: 2Sb-muMax20 (muMax20 with two 1,3-bis(methyl)benzene Cys staples, A13C/A17C and Q88C/A92C, C-terminal Lys)
# ASSAY NOTES: PBM 8-mer E-score (E-score (rank enrichment, -0.5 to 0.5)); higher = stronger preferential binding
Whole data set: some 33,000 sequences, median “E-score (rank enrichment, -0.5 to 0.5)” near -0.0028, cut for the highest 2% near 0.23. The entries come from a sample that favours the highest values as a whole.
// reported PBM 8-mer E-score for each item listed
Give only the figure.

AATTTGGG    0.29
GATGGCAC    0.0352
CATGCCCG    0.114
AGTGGGTC    -0.178
AGGCGCTA    -0.116
GCGTATGA    0.0375
CATGAGCG    -0.0614
AGTGGGAA    0.105

Per the record, AATGGGTA has PBM 8-mer E-score of 0.039

----------
# System: 2Sb-muMax20 (muMax20 with two 1,3-bis(methyl)benzene Cys staples, A13C/A17C and Q88C/A92C, C-terminal Lys)
# ASSAY NOTES: PBM 8-mer E-score (E-score (rank enrichment, -0.5 to 0.5)); higher = stronger preferential binding
Whole data set: some 33,000 sequences, median “E-score (rank enrichment, -0.5 to 0.5)” near -0.0028, cut for the highest 2% near 0.23. Only a selection was taken, and the highest values are over-represented in it overall.
// reported PBM 8-mer E-score for each item listed

Example cases with answers are listed next.
ATGATCCG    -0.186
CACGCGGA    0.28
AAGGGTTG    0.0938

Per the record, ATAGTGCG has PBM 8-mer E-score of 0.0132

Per the record, AAGGCCCG has PBM 8-mer E-score of -0.159

Per the record, ATAACTAA has PBM 8-mer E-score of 0.112

Per the record, ACCGTCAG has PBM 8-mer E-score of -0.115

Per the record, TCGCCCCA has PBM 8-mer E-score of 0.24

Per the record, ACGCCCCC has PBM 8-mer E-score of -0.18

Per the record, CGCCACAC has PBM 8-mer E-score of -0.107

Per the record, CGGGGATA has PBM 8-mer E-score of 0.0352

Per the record, AACGCGGA has PBM 8-mer E-score of -0.0532

Per the record, ACGCCCCG has PBM 8-mer E-score of -0.046

Per the record, AGGGGCTC has PBM 8-mer E-score of 0.0348

Per the record, CGGGGTAA has PBM 8-mer E-score of 0.19

Per the record, AGGGGATA has PBM 8-mer E-score of 0.303
